- System: UO-31
- Assay text: NCI tumour cell line growth inhibition, 48 h
Calls of active or inactive are those of the source. No stated cut-off is given here; in the data, active = GI50 up to about 1.1 µM and inactive = higher.
Hi there, I'd appreciate the recorded GI50 for every entry that follows.

Worked examples follow.
molecule_smiles=CCCCCCCCCCCC(=O)NCc1ccc(OC(=O)CCCCCCCCCCC)c(OC)c1 observed="> 70 µM (inactive)"
molecule_smiles=Cn1c(=O)oc2cc(Br)ccc21 observed="> 100 µM (inactive)"

Consider the additional compound presented here.
The value of GI50 measured for the compound S=C(Nc1ccc(Cl)cc1)c1ccc(CN2CCCCC2)s1 turned out to be 7.8 µM (inactive)

---

Hi there, I'd appreciate the recorded GI50 for every entry that follows.
- Test system: SNB-19
- Assay text: NCI tumour cell line growth inhibition, 48 h
Activity calls are given as the source filed them. No stated cut-off is given here; in the data, active = GI50 up to about 1.1 µM and inactive = higher.

Worked examples follow.
molecule="COc1cccc(NC(=O)CC(=O)N2NC(C)C(/N=N/c3cccc(C(=O)O)c3)C2=O)c1 (configuration not stated)" observed="> 100 µM (inactive)"
molecule=O=[N+]([O-])c1ccc2c3c1[C@@H]1O[C@@H]1c1cccc(c1-3)[C@@H]1O[C@H]21 observed="14.6 µM (inactive)"
molecule=C=C(C)COC(=O)COCC(=O)OCC(=C)C observed="> 100 µM (inactive)"
molecule=CCOC(=N)CC(=O)Nc1cccc(Cl)c1 observed="> 100 µM (inactive)"
molecule=Nc1c(Br)cc(-c2cc(Br)c(N)c(Br)c2)cc1Br observed="> 100 µM (inactive)"
molecule=COc1ccc(/C=C(/C(=O)O)c2cc(OC)c(OC)c(OC)c2)cc1 observed="59.4 µM (inactive)"

Report GI50 for each item below.
1. CC(C)(C)c1cc(C2c3cc4c(cc3OC(O)(CO)C2C(=O)O)OCO4)cc(C(C)(C)C)c1O.CC(C)(C)c1cc(C2c3cc4c(cc3OC3(O)COC(=O)C23)OCO4)cc(C(C)(C)C)c1O (configuration not stated)
2. C(#C[C@@]12CCC[C@@H]1N(Cc1ccccc1)CO2)c1ccc2c(c1)OCO2
3. O=C(Cc1ccc(Cl)c(Cl)c1)NCC1(N2CCCCC2)CCCCC1
4. c1cncc(C2c3[nH]c4ccccc4c3CCN2CCCN2CCCCC2)c1 (configuration not stated)

Found:
1. 12.9 µM (inactive)
2. > 100 µM (inactive)
3. > 100 µM (inactive)
4. > 100 µM (inactive)

Report GI50 for each item below.
1. N#CC1(Cc2ccccc2[N+](=O)[O-])c2ccccc2C2C(N1C(=O)c1ccccc1)C2(Cl)Cl (configuration not stated)
2. CO/N=C(/C(=O)N(C(=O)/C(=N/OC)c1csc(NC(c2ccccc2)(c2ccccc2)c2ccccc2)n1)n1cnn(CC(=O)OC(C)(C)C)c1=O)c1csc(NC(c2ccccc2)(c2ccccc2)c2ccccc2)n1

Found:
> 100 µM (inactive)
> 10 µM (inactive)

Report GI50 for each item below.
1. CCCC/C=C1/CCC(CN(C)C)C1=O (configuration not stated)
2. O=c1c2cc3c(=O)n4c(cc(-c5ccccc5)c5cc(Cl)ccc54)nc3cc2nc2cc(-c3ccccc3)c3cc(Cl)ccc3n12
3. S=C(Nc1ccc2c(c1)Cc1ccccc1-2)Nc1ccc2c(c1)Cc1ccccc1-2
4. O=c1[nH]cnc2c(COCCO)c[nH]c12
5. COC1(C(C)(C)C)C=C(C(C)(C)C)P(=O)(O)O1 (configuration not stated)
6. C[C@H]1C(=O)c2c(cc(O)c(C3OC(CO)C(O)C(O)C3O)c2O)OC1c1ccc(O)c(O)c1 (some centres not stated)
7. O=C1Sc2cc3ccccc3cc2C(=O)Sc2cc3ccccc3cc21
8. Nc1ccc2ncc(NCc3ccc(F)cc3)nc2c1

Found:
5.97 µM (inactive)
45.6 µM (inactive)
> 100 µM (inactive)
> 100 µM (inactive)
> 100 µM (inactive)
> 100 µM (inactive)
47.1 µM (inactive)
> 100 µM (inactive)

Report GI50 for each item below.
1. O=c1c2ccccc2c(=O)c2c1c1[nH]c3ccccc3c1c1c(=O)c3ccccc3c(=O)c21
2. CN1CCN(C(=S)N(C(=O)c2ccc(Cl)cc2)C2CCCCC2)CC1

Found:
1: > 100 µM (inactive); 2: > 100 µM (inactive)

---

- System: SF-295
- Assay text: NCI tumour cell line growth inhibition, 48 h
Active and inactive are the calls of the source. Rule as the data show it: active = GI50 up to about 1.1 µM and inactive = higher.
Pick one: true (1) = active, false (0) = inactive

molecule=COc1cc(Cl)cc(N(O)C(C)=O)c1OCc1ccccc1 class_assignment="false (0)"
molecule=O=C(O)c1cnccc1-c1cc(=O)[nH]n1-c1ccccc1 class_assignment="false (0)"
molecule="CC[C@@]1(OC(=O)C(N)CCC(=O)O)C(=O)OCc2c1cc1n(c2=O)Cc2cc3ccccc3nc2-1 (stereo partly drawn)" class_assignment="true (1)"
molecule=C/C(=N\NC(N)=S)c1cc(C)c(C)cc1C class_assignment="false (0)"
molecule="[N-]=[N+]=C1C(=O)C2CC3CC1CC2C3 (stereo not drawn)" class_assignment="false (0)"
molecule=CN(C)/C=C/C(=CC=[N+](C)C)/C=C/N(C)C.[O-][Cl+3]([O-])([O-])[O-] class_assignment="false (0)"
molecule="O=C1NC(=O)C2C1c1[nH]c3ccccc3c1C1CCCC12 (stereo not drawn)" class_assignment="false (0)"
molecule=COc1ccc(/C=C2/C(=O)N(/C=C3\C(=O)Oc4ccccc4C3=O)/C(=N/C(C)=O)N2C)cc1OC class_assignment="false (0)"
molecule=COc1cc(NC(C)=O)ccc1C(=O)N/N=C/c1ccc(Cl)cc1Cl class_assignment="false (0)"
molecule=CCOC(=O)C1(C(=O)OCC)C(C(C)(C)C)=C(C)c2ccccc21 class_assignment="false (0)"

Lookup: Which result was noted for this molecule in the test: CC1=CC2CC(C)=C(CC[C@]3(C)CC[C@H]([C@@H](C)C(=O)O)OO3)C(C)(C)C2CC1 (stereo partly drawn)
Found: false (0)

Lookup: Which result was noted for this molecule in the test: COc1cc(Nc2nc3cc(C(F)(F)F)ccc3nc2C)cc(OC)c1OC
Found: false (0)

Lookup: Which result was noted for this molecule in the test: C=CCN1C(=O)/C(=C/c2ccccc2)N=C1SC1OC(COC(=O)c2ccccc2)C(OC(=O)c2ccccc2)C1OC(=O)c1ccccc1 (stereo not drawn)
Found: false (0)

---

- System: NCI-H226
- Assay text: NCI tumour cell line growth inhibition, 48 h
Activity calls are given as the source filed them. Cut-off read from the data, not from the text of the source: active = GI50 up to about 1.1 µM and inactive = higher.
Hi there, I'd appreciate the recorded GI50 for every entry that follows.

Worked examples follow.
compound="CC(=O)C1C(=O)C(=O)N(c2ccc([N+](=O)[O-])cc2[N+](=O)[O-])C1=O (stereo unspecified)" study_system=NCI-H226 observed="> 100 µM (inactive)"
compound="C[C@@H](NC(C#N)c1ccco1)c1ccccc1 (stereo partly specified)" study_system=NCI-H226 observed="> 100 µM (inactive)"
compound=Cc1c(N)c(C#N)c2n(C)c3ncccc3n2c1=O study_system=NCI-H226 observed="> 100 µM (inactive)"
compound=c1ccc(CCCNc2nnnc3ccccc23)cc1 study_system=NCI-H226 observed="> 100 µM (inactive)"
compound=COc1ccc(C(=O)N(Cc2cccnc2)C(=S)N(Cc2cccnc2)C(=O)c2ccc(OC)cc2)cc1 study_system=NCI-H226 observed="> 100 µM (inactive)"

The value of GI50 measured for the compound O=C1C=CC2(O[C@H](c3ccccc3)[C@@H](c3ccccc3)O2)[C@H](Sc2ccccc2O)C1 turned out to be 2.72 µM (inactive)

---

- System: SK-MEL-2
- Assay text: NCI tumour cell line growth inhibition, 48 h
Active and inactive are the calls of the source. Cut-off read from the data, not from the text of the source: active = GI50 up to about 1.1 µM and inactive = higher.
Measurement kind: GI50

molecule_smiles=Cc1c(N)c(C#N)c2n(C)c3ncccc3n2c1=O observed="> 100 µM (inactive)"
molecule_smiles=[N-]=[N+]=NC[C@H]1OCO[C@H](CN=[N+]=[N-])[C@@H](OCCOCCCl)[C@@H]1OCCOCCCl observed="> 100 µM (inactive)"
molecule_smiles=CNC(=O)Nc1cc2c3c(c1)CCCN3CCC2 observed="> 10 µM (inactive)"
molecule_smiles=O=S1(=O)CCC2=CC(C(F)(F)F)=CC(C(F)(F)F)=CN21 observed="1.82 µM (inactive)"

Report GI50 for each item below.
1. COC(=O)C(C(=O)Cc1ccccc1[N+](=O)[O-])C(=O)OC
2. O=[N+]([O-])c1ccc2c3c1[C@@H]1O[C@@H]1c1cccc(c1-3)[C@@H]1O[C@H]21
3. COc1cc(CCc2ccc(N)cc2)cc(OC)c1OC
4. C#C[C@]1(O)CC[C@H]2[C@@H]3CCc4cc(O)ccc4[C@H]3CC[C@@]21C
5. CC(=O)OC1=CC2=CC[C@H]3[C@@H]4CCC(=O)[C@@]4(C)CC(=O)[C@]3(S)[C@@]2(C)CC1

Found:
> 100 µM (inactive)
6.14 µM (inactive)
27.8 µM (inactive)
24.5 µM (inactive)
47.1 µM (inactive)

---

- Tested on: SK-MEL-5
- Assay text: NCI tumour cell line growth inhibition, 48 h
The source made the active and inactive calls. Cut-off read from the data, not from the text of the source: active = GI50 up to about 1.1 µM and inactive = higher.
Pick one: Y (active), N (inactive)

Reference set, count: 6
compound=Cc1c(N)c(C#N)c2n(C)c3ncccc3n2c1=O class_assignment=N
compound="O=C1OC(c2ccccc2)=N/C1=C/NC(CS)C(=O)O (stereo not given)" class_assignment=N
compound=COc1ccc(/C=C2/C(=O)N(/C=C3\C(=O)Oc4ccccc4C3=O)/C(=N/C(C)=O)N2C)cc1OC class_assignment=N
compound=NNS(=O)(=O)c1cc(C(=O)O)cc(C(=O)O)c1 class_assignment=N
compound="CN(C(=O)C12C3C4C1C1C2C3C41I)C(C)(C)C (stereo not given)" class_assignment=N
compound=COc1ccc(/C(=N\Nc2ccccn2)c2ccccn2)cc1 class_assignment=Y

Lookup: Which result was noted for this compound in the test: COc1cc(Cl)cc(N(O)C(C)=O)c1OCc1ccccc1
Found: N

Lookup: Which result was noted for this compound in the test: C/C=C1/CN2[C@@H](C3=C[C@@H]4[C@@H]5N(C3=O)c3ccccc3[C@@]53CCN5C/C(=C/C)[C@@H]4C[C@H]53)C[C@@]34c5ccccc5N5C(=O)CC=C([C@H]1C[C@H]23)[C@H]54
Found: N

Lookup: Which result was noted for this compound in the test: O=C1C=C2SC3C[C@@]24CC1(O)[N+]1=c2c4c(c(O)c4c2=C(C=N4)CC1)N3
Found: N

Lookup: Which result was noted for this compound in the test: CCc1c(Cl)nc(Cl)nc1Cl
Found: Y
